Listed here: items and their measured Dmax.
molecular target: BTK (Homo sapiens, UniProt Q06187); assay: Degradation of BTK protein in Namalwa cells (Western blot; DC50, Dmax); settings: read-out: Dmax (BTK degradation)
Sequence (Q06187 whole entry): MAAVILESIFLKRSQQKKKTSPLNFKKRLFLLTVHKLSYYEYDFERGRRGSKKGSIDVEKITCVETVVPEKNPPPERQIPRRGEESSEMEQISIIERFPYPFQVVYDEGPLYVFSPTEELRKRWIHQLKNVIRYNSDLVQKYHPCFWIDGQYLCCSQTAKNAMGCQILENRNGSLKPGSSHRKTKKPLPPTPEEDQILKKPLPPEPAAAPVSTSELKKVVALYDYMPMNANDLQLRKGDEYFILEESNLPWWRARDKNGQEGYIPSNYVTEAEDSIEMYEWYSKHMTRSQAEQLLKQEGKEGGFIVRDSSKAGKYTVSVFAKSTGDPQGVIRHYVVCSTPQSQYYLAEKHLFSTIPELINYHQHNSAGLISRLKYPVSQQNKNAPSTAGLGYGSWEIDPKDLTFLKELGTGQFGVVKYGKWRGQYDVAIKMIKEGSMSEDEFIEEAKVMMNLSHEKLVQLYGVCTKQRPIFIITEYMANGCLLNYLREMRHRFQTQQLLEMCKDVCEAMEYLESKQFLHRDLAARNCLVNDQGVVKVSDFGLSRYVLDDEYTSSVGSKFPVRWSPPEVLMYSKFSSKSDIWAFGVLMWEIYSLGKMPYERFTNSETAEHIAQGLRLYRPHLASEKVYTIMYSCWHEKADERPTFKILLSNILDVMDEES

COMPOUND | Dmax
Nc1ncnc2c1c(-c1ccc(Oc3ccccc3)cc1)nn2C1CCN(CCCN2CCC(CC3CCN(c4ccc(NC5CCC(=O)NC5=O)cc4)CC3)CC2)CC1 (centres unmarked) [Compound 561] | > 90%
Nc1ncnc2c1c(-c1ccc(Oc3ccccc3)cc1)nn2C1CCN(CCN2CC(CN3CCN(c4ccc5c(c4)C(=O)N(C4CCC(=O)NC4=O)C5=O)CC3)C2)CC1 (centres unmarked) [Compound 461] | > 90%
Nc1ncnc2c1c(-c1ccc(Oc3ccccc3)cc1)nn2C1CCN(C[C@H]2CCN(C[C@@H]3CCN(c4ccc5c(c4)C(=O)N(C4CCC(=O)NC4=O)C5=O)C3)C2)CC1 (some centres unmarked) [Compound 447b] | > 90%
NC(=O)c1c(-c2ccc(Oc3ccccc3)cc2)nn2c1NCC[C@H]2C1CCN(CC2CCN(C(=O)N3CCC(CC4CCN(c5ccc6c(c5)CN(C5CCC(=O)NC5=O)C6=O)CC4)CC3)CC2)CC1 (some centres unmarked) [Compound 414] | > 90%
NC(=O)c1c(-c2ccc(Oc3ccccc3)cc2)nn2c1NCC[C@H]2C1CCN(CC2CCN(C(=O)N3CCC(CN4CCN(c5ccc6c(c5)CN(C5CCC(=O)NC5=O)C6=O)CC4)CC3)CC2)CC1 (some centres unmarked) [Compound 410] | > 90%

---

Listed here: items and their measured Dmax.
target: BTK (Homo sapiens); experiment: Degradation of BTK protein in Namalwa cells (Western blot; DC50, Dmax)
VALUE_KIND: Dmax

MOLECULE | SYSTEM_TESTED | VALUE_KIND | OBSERVED_RESULT
Nc1ncnc2c1c(-c1ccc(Oc3ccccc3)cc1)nn2C1CCN(C2CCN(C(=O)N3CCN(CCCN4CCN(c5ccc6c(c5)C(=O)N(C5CCC(=O)NC5=O)C6=O)CC4)CC3)CC2)CC1 (centres unmarked) | BTK (Homo sapiens) | Dmax | > 75%
Nc1ncnc2c1c(-c1ccc(Oc3ccccc3)cc1)nn2C1CCN(C2CCN(C(=O)N3CCC(CC4CCN(c5ccc6c(c5)CN(C5CCC(=O)NC5=O)C6=O)CC4)CC3)CC2)CC1 (centres unmarked) | BTK (Homo sapiens) | Dmax | > 90%
NC(=O)c1c(-c2ccc(Oc3ccccc3)cc2)nn2c1NCC[C@H]2C1CCN(C2CCN(C(=O)N3CCC(CN4CCN(c5ccc6c(c5)CN(C5CCC(=O)NC5=O)C6=O)CC4)CC3)CC2)CC1 (some centres unmarked) | BTK (Homo sapiens) | Dmax | > 90%
NC(=O)c1c(-c2ccc(Oc3ccccc3)cc2)nn2c1NCC[C@H]2C1CCN(CCOCCOCCN2CCN(c3ccc4c(c3)C(=O)N(C3CCC(=O)NC3=O)C4=O)CC2)CC1 (some centres unmarked) | BTK (Homo sapiens) | Dmax | > 90%
NC(=O)c1c(-c2ccc(Oc3ccccc3)cc2)nn2c1NCC[C@H]2C1CCN(C2CCN(CC3CCN(c4ccc5c(c4)CN(C4CCC(=O)NC4=O)C5=O)CC3)CC2)CC1 (some centres unmarked) | BTK (Homo sapiens) | Dmax | > 90%
NC(=O)c1c(-c2ccc(Oc3ccccc3)cc2)nn2c1NCC[C@H]2C1CCN(C(=O)N2CCC(CN3CCN(c4ccc5c(c4)CN(C4CCC(=O)NC4=O)C5=O)CC3)CC2)CC1 (some centres unmarked) | BTK (Homo sapiens) | Dmax | > 90%
Nc1ncnc2c1c(-c1ccc(Oc3ccccc3)cc1)nn2C1CCN(CC2CCN(CCN3CCN(c4ccc5c(c4)CN(C4CCC(=O)NC4=O)C5=O)CC3)CC2)CC1 (centres unmarked) | BTK (Homo sapiens) | Dmax | > 90%
NC(=O)c1c(-c2ccc(Oc3ccccc3)cc2)nn2c1NCC[C@H]2C1CCN(CC2CCN(CC3CCN(c4ccc5c(c4)CN(C4CCC(=O)NC4=O)C5=O)CC3)CC2)CC1 (some centres unmarked) | BTK (Homo sapiens) | Dmax | > 75%
Nc1ncnc2c1c(-c1ccc(Oc3ccccc3)cc1)nn2C1CCN(C2CCN(C(=O)N3CCC(CC4CCN(c5ccc6c(c5)C(=O)N(C5CCC(=O)NC5=O)C6=O)CC4)CC3)CC2)CC1 (centres unmarked) | BTK (Homo sapiens) | Dmax | > 90%
Nc1ncnc2c1c(-c1ccc(Oc3ccccc3)cc1)nn2C1CCN(C2CCN(C(=O)N3CCC(CN4CCC(c5ccc6c(c5)C(=O)N(C5CCC(=O)NC5=O)C6=O)CC4)CC3)CC2)CC1 (centres unmarked) | BTK (Homo sapiens) | Dmax | > 90%
NC(=O)c1c(-c2ccc(Oc3ccccc3)cc2)nn2c1NCCC2C1CCN(CC2CCN(C(=O)N3CCC(N4CCC(c5ccc6c(c5)CN(C5CCC(=O)NC5=O)C6=O)CC4)CC3)CC2)CC1 (centres unmarked) | BTK (Homo sapiens) | Dmax | > 90%
Nc1ncnc2c1c(-c1ccc(Oc3ccccc3)cc1)nn2C1CCN(CC2CCN(CCCN3CCN(c4ccc5c(c4)C(=O)N(C4CCC(=O)NC4=O)C5=O)CC3)CC2)CC1 (centres unmarked) | BTK (Homo sapiens) | Dmax | > 75%
NC(=O)c1c(-c2ccc(Oc3ccccc3)cc2)nn2c1NCCC2C1CCN(C2CCN(CCC3CCN(c4ccc5c(c4)CN(C4CCC(=O)NC4=O)C5=O)CC3)CC2)CC1 (centres unmarked) | BTK (Homo sapiens) | Dmax | > 75%
NC(=O)c1c(-c2ccc(Oc3ccccc3)cc2)nn2c1NCC[C@H]2C1CCN(C(=O)N2CCN(CC3CCN(c4ccc5c(c4)CN(C4CCC(=O)NC4=O)C5=O)CC3)CC2)CC1 (some centres unmarked) | BTK (Homo sapiens) | Dmax | > 90%
Nc1ncnc2c1c(-c1ccc(Oc3ccccc3)cc1)nn2C1CCN(C2CCN(C(=O)N3CCC(CCC4CCN(c5ccc6c(c5)CN(C5CCC(=O)NC5=O)C6=O)CC4)CC3)CC2)CC1 (centres unmarked) | BTK (Homo sapiens) | Dmax | > 90%
NC(=O)c1c(-c2ccc(Oc3ccccc3)cc2)nn2c1NCC[C@H]2C1CCN(C2CCN(C(=O)N3CCC(CN4CCN(c5ccc6c(c5)C(=O)N(C5CCC(=O)NC5=O)C6=O)CC4)CC3)CC2)CC1 (some centres unmarked) | BTK (Homo sapiens) | Dmax | > 90%
NC(=O)c1c(-c2ccc(Oc3ccccc3)cc2)nn2c1NCC[C@H]2C1CCN(C2CCN(C(=O)N3CCC(N4CCN(c5ccc6c(c5)CN(C5CCC(=O)NC5=O)C6=O)CC4)CC3)CC2)CC1 (some centres unmarked) | BTK (Homo sapiens) | Dmax | > 90%
NC(=O)c1c(-c2ccc(Oc3ccccc3)cc2)nn2c1NCCC2C1CCN(C2CCN(CC3CCN(c4ccc5c(c4)CN(C4CCC(=O)NC4=O)C5=O)CC3)CC2)CC1 (centres unmarked) | BTK (Homo sapiens) | Dmax | > 90%
Nc1ncnc2c1c(-c1ccc(Oc3ccccc3)cc1)nn2[C@@H]1CCCN(C2CCN(C(=O)N3CCC(CCCC4CCN(c5ccc6c(c5)C(=O)N(C5CCC(=O)NC5=O)C6=O)CC4)CC3)CC2)C1 (some centres unmarked) | BTK (Homo sapiens) | Dmax | > 75%
NC(=O)c1c(-c2ccc(Oc3ccccc3)cc2)nn2c1NCCC2C1CCN(CC2CCN(C(=O)N3CCC(N4CCN(c5ccc6c(c5)CN(C5CCC(=O)NC5=O)C6=O)CC4)CC3)CC2)CC1 (centres unmarked) | BTK (Homo sapiens) | Dmax | > 90%
